For each entry below, report its T/C value.
- Test system: P388 leukemia ip, CD2F1 mice, survival T/C
- PROCEDURE_DETAILS: NCI In Vivo Anticancer Drug Screen. Data for tumor model P388 Leukemia (intraperitoneal) in CD2F1 (CDF1) mice
- MEASUREMENT_SETUP: endpoint: median survival time; dose: 50.0 mg/kg/injection; schedule: Q01DX005 (ip); vehicle: Klucel (hydroxypropylcellulose) (HPC); higher = longer survival
Inconclusive results and toxic doses are left out.

- COMPOUND: "C(=NCCC[Si]12OCCN(CCO1)CCO2)c1ccccc1"
  T/C: "105 % of control"
- COMPOUND: "CC(C)c1ccc2c(c1)CCC1C(C)(CN)CCCC21C (stereo not drawn)"
  T/C: "97 % of control"

# query: T/C of entry CCC(Nc1nncs1)Nc1nncs1
100 % of control

* * *

For each entry below, report its T/C value.
- System: P388 leukemia ip, CD2F1 mice, survival T/C
- PROCEDURE_DETAILS: NCI In Vivo Anticancer Drug Screen. Data for tumor model P388 Leukemia (intraperitoneal) in CD2F1 (CDF1) mice
- MEASUREMENT_SETUP: endpoint: median survival time; dose: 50.0 mg/kg/injection; schedule: Q01DX001 (ip); vehicle: saline with Tween-80; higher = longer survival
Inconclusive results and toxic doses are left out.

Would you please look over these solved cases?
- COMPOUND: "COc1ccc2c(=O)c3cc([N+](=O)[O-])ccc3n(C)c2c1"
  TESTED_TARGET: "P388 leukemia ip, CD2F1 mice, survival T/C"
  T/C: "94 % of control"
- COMPOUND: "CCCCCCCC(=O)Nc1cc2c3c(c1)CCCN3CCC2"
  TESTED_TARGET: "P388 leukemia ip, CD2F1 mice, survival T/C"
  T/C: "100 % of control"
- COMPOUND: "O=C(CC(c1ccccc1)C(C(=O)O)c1ccccc1)c1ccccc1 (stereo not drawn)"
  TESTED_TARGET: "P388 leukemia ip, CD2F1 mice, survival T/C"
  T/C: "92 % of control"

# batch: return T/C for each of the 4 compounds below
1. COc1ccc(C(=O)NCCN2CCN3Cc4[nH]c5ccccc5c4CC3C2)cc1 (stereo not drawn)
2. CSc1nc(SC)c2c(CNC(C)=O)cn(Cc3ccccc3)c2n1
3. Cc1cc2nc(CN(CCN(Cc3nc4cc(C)c(C)cc4[nH]3)Cc3nc4cc(C)c(C)cc4[nH]3)Cc3nc4cc(C)c(C)cc4[nH]3)[nH]c2cc1C
4. CC(C)(C)S(=O)(=O)C(C)(C)C

97 % of control
87 % of control
116 % of control
111 % of control

# query: T/C of entry CS(=O)(=O)C(=S)Sc1ccccc1
97 % of control

* * *

- Test system: P388 leukemia ip, CD2F1 mice, survival T/C
- PROCEDURE_DETAILS: NCI In Vivo Anticancer Drug Screen. Data for tumor model P388 Leukemia (intraperitoneal) in CD2F1 (CDF1) mice
- MEASUREMENT_SETUP: endpoint: median survival time; dose: 50.0 mg/kg/injection; schedule: Q01DX005 (ip); vehicle: saline; higher = longer survival
Toxic doses and inconclusive results are not listed. Peptide text beside a SMILES is read from it.
For each entry below, report its T/C value.

Would you please look over these solved cases?
- COMPOUND: "CCN=C(N)Nc1nc(C)c2cc(Cl)ccc2n1"
  T/C: "111 % of control"
- COMPOUND: "Cl/N=C1/C=CC=C/C1=N/Cl"
  T/C: "106 % of control"
- COMPOUND: "COc1cc(NC(C)CN(CC(C)C)C(C)C)c2ncccc2c1 (stereo not given)"
  T/C: "104 % of control"

# batch: return T/C for each of the 2 compounds below
1. Cc1cnc(F)nc1F
2. CC(O)CN(CCN(CC(C)O)CC(C)O)CC(C)O (stereo not given)

1. 94 % of control
2. 105 % of control

# batch: return T/C for each of the 2 compounds below
1. OCC1(c2ccncc2)OCCO1
2. Cc1nc2ncnc(Cl)c2[nH]1

["101 % of control", "99 % of control"]

# batch: return T/C for each of the 6 compounds below
1. CC(O)C(N)C(=O)NC(Cc1ccc(O)cc1)C(=O)NC(CO)C(=O)NC(CCCCN)C(=O)O (stereo not given) (H-TYSK-OH; configuration not given here)
2. COc1cccc(NCCCSC)c1
3. CC(CCO)CCC(Br)C(C)(C)Br (stereo not given)
4. NCC(=O)NC(CCCN=C(N)N)C(=O)O (stereo not given)
5. CC(=O)NC1C(Nc2ccc(S(=O)(=O)NC(C)=O)cc2)OC(CO)C(O)C1O (stereo not given)
6. CCOC(CN)(OCC)c1ccncc1

1. 99 % of control
2. 102 % of control
3. 103 % of control
4. 96 % of control
5. 100 % of control
6. 102 % of control

# batch: return T/C for each of the 2 compounds below
1. NCCCN1CCCC1
2. CCCCN(CCCC)C(=O)/C(O)=C(\O)C(=O)N(CCCC)CCCC

95 % of control
96 % of control
